These data points were gathered from ChEMBL document CHEMBL2375302.

Tested on: Aspergillus fumigatus
Experiment: Antifungal activity against Aspergillus fumigatus Af293 at 5 mg/mL after 48 hrs
Format: functional
Conditions: Af293, 48 h, read-out: DIZ
Measured quantity: zone of inhibition at 5000 µg/mL (mm)
Give the quantity in mm, number only.

[[record]]
compound = "N#CC1C(=O)N=C2SC(S(N)(=O)=O)=NN2C1c1ccc(Cl)cc1 (stereo not given)"
target_or_system = "Aspergillus fumigatus"
measured_quantity = "zone of inhibition at 5000 µg/mL"
value = 6


Let's switch to this compound now.
Param item = Nc1c(/N=N/c2ccc(Br)cc2)c(=O)nc2sc(S(N)(=O)=O)nn12 ; retrieve measured zone of inhibition at 5000 µg/mL.
4
